# MEASURED TARGET: HLA-A*03:01 (Homo sapiens, UniProt P04439)
# ASSAY OVERVIEW: MHC binding assay (UV-ligand exchange, β2m ELISA)
# SETTINGS: peptide exchange yield, binding to HLA-A*03:01

SUBSTANCE: 63 (KVLGPNGLLK; listed as Homo sapiens) [compound 63]
MEASURED TARGET: HLA-A*03:01 (Homo sapiens, UniProt P04439)
Peptide exchange: “++” (>20% = ++)
//
SUBSTANCE: 84 (TVASLHTEK; listed as Homo sapiens) [compound 84]
MEASURED TARGET: HLA-A*03:01 (Homo sapiens, UniProt P04439)
Peptide exchange: “++” (>20% = ++)
//
SUBSTANCE: 66 (ATYEGIQKK; listed as Homo sapiens) [compound 66]
MEASURED TARGET: HLA-A*03:01 (Homo sapiens, UniProt P04439)
Peptide exchange: “++” (>20% = ++)

###

# MEASURED TARGET: HLA-A*03:01 (Homo sapiens, UniProt P04439)
# ASSAY OVERVIEW: MHC binding assay (UV-ligand exchange, β2m ELISA)
# SETTINGS: peptide exchange yield, binding to HLA-A*03:01
READOUT: Peptide exchange

Answered examples (5):
SUBSTANCE: 74 (QLYSKFLLK; listed as Homo sapiens) [compound 74]
Peptide exchange: “+++” (>50 = +++)

SUBSTANCE: 62 (GSYSALLAKK; listed as Homo sapiens) [compound 62]
Peptide exchange: “+++” (>50 = +++)

SUBSTANCE: 77 (SSASLAHMK; listed as Homo sapiens) [compound 77]
Peptide exchange: “++” (>20% = ++)

SUBSTANCE: 94 (KTYVGHPVKM; listed as Homo sapiens) [compound 94]
Peptide exchange: “+++” (>50 = +++)

SUBSTANCE: 78 (STKSTSPPK; listed as Homo sapiens) [compound 78]
Peptide exchange: “++” (>20% = ++)

Asked: # return recorded Peptide exchange for entry 81 (SVKLQGTSK; listed as Homo sapiens) [compound 81]
Given back: “++” (>20% = ++)

Asked: Kindly indicate its recorded Peptide exchange. Item: 97 (RMPPPLPTR; listed as Homo sapiens) [compound 97]
Given back: “++” (>20% = ++)

Asked: Give Peptide exchange for 73 (KSFDRHFEK; listed as Homo sapiens) [compound 73]
Given back: “+++” (>50 = +++)

Asked: Identify Peptide exchange associated with the substance 93 (ALDKPGKSK; listed as Homo sapiens) [compound 93]
Given back: “++” (>20% = ++)

Asked: Fill in Peptide exchange for record 112 (KMMADYGIRK; listed as Homo sapiens) [compound 112]
Given back: “+++” (>50 = +++)

###

# MEASURED TARGET: HLA-B*44:02 (Homo sapiens, UniProt P01889, A223V/A65T/A93T/A95T/D201E/D98Y/E176V/E187L/E204Q/E69K/G107R/H137Y/K202T/L105A/L119I/N104T/N87E/Q56L/Q94N/R106L/R155S/R180D/S101N/S121R/S35A/S48T/T118I/V36M/W191S/Y140D/Y91S)
# ASSAY OVERVIEW: MHC binding assay (UV-ligand exchange, β2m ELISA)
# SETTINGS: peptide exchange yield, binding to HLA-B*44:02
READOUT: Peptide exchange

SUBSTANCE: 238 (SENPETITY; listed as Homo sapiens) [compound 238]
Peptide exchange: “+++” (>50 = +++)
//
SUBSTANCE: 232 (AEKDGKLTDY; listed as Homo sapiens) [compound 232]
Peptide exchange: “++” (>20% = ++)
//
SUBSTANCE: 241 (REAEPIPKM; listed as Homo sapiens) [compound 241]
Peptide exchange: “++” (>20% = ++)
//
SUBSTANCE: 263 (QQATPGPAY; listed as Homo sapiens) [compound 263]
Peptide exchange: “++” (>20% = ++)
//
SUBSTANCE: 236 (EEKLIIQDF; listed as Homo sapiens) [compound 236]
Peptide exchange: “++” (>20% = ++)
//
SUBSTANCE: 203 (KENFAGEATL; listed as Homo sapiens) [compound 203]
Peptide exchange: “++” (>20% = ++)

Asked: Report Peptide exchange for 261 (IEALLESSL; listed as Homo sapiens) [compound 261]
Given back: “++” (>20% = ++)

Asked: Quick one: give measured Peptide exchange for 217 (NEINEKIAPSF; listed as Homo sapiens) [compound 217]
Given back: “+++” (>50 = +++)

Asked: Provide Peptide exchange value for the following substance: 262 (MELLLVNKL; listed as Homo sapiens) [compound 262]
Given back: “+++” (>50 = +++)

Asked: Query Peptide exchange for 239 (TEVLDSHIHAY; listed as Homo sapiens) [compound 239]
Given back: “++” (>20% = ++)

Asked: Answer with the recorded Peptide exchange for the substance listed here: 206 (SEPINIIDAL; listed as Homo sapiens) [compound 206]
Given back: “++” (>20% = ++)

Asked: State its Peptide exchange for this substance: 212 (AEETCAPSV; listed as Homo sapiens) [compound 212]
Given back: “++” (>20% = ++)

Asked: Answer with reported Peptide exchange of 216 (LQEEKVPAIY; listed as Homo sapiens) [compound 216]
Given back: “+” (>10% = +)

Asked: Annotate the substance 220 (KEITGFLLI; listed as Homo sapiens) [compound 220] with its measured Peptide exchange.
Given back: “+++” (>50 = +++)

Asked: For the substance 233 (DESEKTTKSF; listed as Homo sapiens) [compound 233] , give its reported Peptide exchange.
Given back: “++” (>20% = ++)

Asked: Provide measured Peptide exchange value, entry: 199 (GEATLQRIY; listed as Homo sapiens) [compound 199]
Given back: “+” (>10% = +)

Asked: Look up and report measured Peptide exchange for this entry: 230 (AENLFRAFL; listed as Homo sapiens) [compound 230]
Given back: “+++” (>50 = +++)

Asked: Find the measured Peptide exchange of 196 (AEQTGTWKL; listed as Homo sapiens) [compound 196] and report it.
Given back: “++” (>20% = ++)

Asked: Please report Peptide exchange for the following substance: 226 (EELLHGQLF; listed as Homo sapiens) [compound 226]
Given back: “++” (>20% = ++)

Asked: For the substance 224 (SESAVFHGF; listed as Homo sapiens) [compound 224] , give its reported Peptide exchange.
Given back: “+++” (>50 = +++)

Asked: Item 235 (EEFETLKEF; listed as Homo sapiens) [compound 235] : provide Peptide exchange
Given back: “++” (>20% = ++)

Asked: // fetch Peptide exchange given entry 265 (EEVDVPIKLY; listed as Homo sapiens) [compound 265]
Given back: “++” (>20% = ++)

Asked: Check the records and state Peptide exchange for 211 (TEKEMIQKL; listed as Homo sapiens) [compound 211]
Given back: “++” (>20% = ++)

Asked: Identify measured Peptide exchange associated with 264 (DEYLIPQQGF; listed as Homo sapiens) [compound 264]
Given back: “+++” (>50 = +++)

Asked: Annotate the substance 204 (KESQLPTVM; listed as Homo sapiens) [compound 204] with its measured Peptide exchange.
Given back: “++” (>20% = ++)

Asked: Give recorded Peptide exchange. 195 (AEAVLKTLQEL; listed as Homo sapiens) [compound 195]
Given back: “+++” (>50 = +++)

Cited source: patent US20200339657A1
